Recorded values, source the supplement of paper PMC10126150.

Tested on: ATP;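 further: ATP exposure 15 min at 22 °C before imaging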
Assay: switch fluorescence ratio, 500 uM ATP over buffer (Cy3 cluster intensity, sum of 5 cycles each) (fold (ratio)); higher = stronger signal-on switching upon ATP binding; sequences stand for … in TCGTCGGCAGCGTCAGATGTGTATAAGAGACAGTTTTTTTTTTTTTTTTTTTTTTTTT…TC
Details: aptamer strand: ATP DNA aptamer (quencher-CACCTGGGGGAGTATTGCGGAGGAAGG + anchor), 100 nM annealed; ATP concentration: 500 uM

residue.string: ACCCATAGCG
switch fluorescence ratio: 1.02
--
residue.string: GTAGGGAGTT
switch fluorescence ratio: 0.977
--
residue.string: ATTTTGCGTT
switch fluorescence ratio: 0.998
--
residue.string: AGAAAATTAC
switch fluorescence ratio: 2.42
--
residue.string: CCCCAAGCAG
switch fluorescence ratio: 2.5
--
residue.string: TAAGAAGGCG
switch fluorescence ratio: 0.973
--
residue.string: CACAAACCAG
switch fluorescence ratio: 1.34
--
residue.string: GCGTTCACGG
switch fluorescence ratio: 0.988
--
residue.string: ACGTTGGTGC
switch fluorescence ratio: 1.06
--
residue.string: GGGGGTATAT
switch fluorescence ratio: 1.03
--
residue.string: CTGGCATTAT
switch fluorescence ratio: 1.21
--
residue.string: ACCACTAAAA
switch fluorescence ratio: 1.04
--
residue.string: CTGAGGAAGT
switch fluorescence ratio: 0.991
--
residue.string: GTGGGAAAAA
switch fluorescence ratio: 1.01
--
residue.string: GATATTTTTC
switch fluorescence ratio: 1.03
--
residue.string: CTTTGAAAA
switch fluorescence ratio: 1.02
--
residue.string: AATGTATGTT
switch fluorescence ratio: 1.03

====

Each entry below carries its reported switch fluorescence ratio.
Test system: ATP;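 further: ATP exposure 15 min at 22 °C before imaging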
Assay: switch fluorescence ratio, 500 uM ATP over buffer (Cy3 cluster intensity, sum of 5 cycles each) (fold (ratio)); higher = stronger signal-on switching upon ATP binding; sequences stand for … in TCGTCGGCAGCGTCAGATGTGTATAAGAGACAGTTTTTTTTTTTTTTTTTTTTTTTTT…TC
Conditions: aptamer strand: ATP DNA aptamer (quencher-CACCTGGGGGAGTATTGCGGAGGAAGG + anchor), 100 nM annealed; ATP concentration: 500 uM
value.kind: switch fluorescence ratio

residue.string: TTATGTTAGG
readout.value: 0.975
--
residue.string: CCTTTGTTGG
readout.value: 1.01
--
residue.string: TTTAGTGTCT
readout.value: 0.983
--
residue.string: AGTGTTTGTT
readout.value: 0.999
--
residue.string: CCTTTCTATT
readout.value: 0.99
--
residue.string: AGCGGGGGAT
readout.value: 1.01
--
residue.string: AATGGTATGT
readout.value: 1.03
--
residue.string: CGGTGCGACG
readout.value: 0.958
--
residue.string: ATGAATTAAA
readout.value: 0.992
--
residue.string: TTGGTTGGCT
readout.value: 1.01
--
residue.string: AATTGGGTTT
readout.value: 0.99
--
residue.string: CCATGGCCTG
readout.value: 0.97
--
residue.string: GGTATGTAAG
readout.value: 0.995
--
residue.string: AAATGTATGT
readout.value: 0.988
--
residue.string: TTGCACGCCT
readout.value: 1.01

====

Tested on: ATP;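 further: ATP exposure 15 min at 22 °C before imaging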
Assay: switch fluorescence ratio, 500 uM ATP over buffer (Cy3 cluster intensity, sum of 5 cycles each) (fold (ratio)); higher = stronger signal-on switching upon ATP binding; sequences stand for … in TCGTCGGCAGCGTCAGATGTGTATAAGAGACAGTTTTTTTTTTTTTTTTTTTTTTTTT…TC
Conditions: aptamer strand: ATP DNA aptamer (quencher-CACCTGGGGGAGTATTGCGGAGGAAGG + anchor), 100 nM annealed; ATP concentration: 500 uM

residue.string: GCCTAATTGA
switch fluorescence ratio: 0.984
--
residue.string: TCTGGGGGAG
switch fluorescence ratio: 0.977
--
residue.string: ACTTATTGAA
switch fluorescence ratio: 1.11
--
residue.string: GGGTTTGATC
switch fluorescence ratio: 0.975
--
residue.string: AATTTGAGTG
switch fluorescence ratio: 0.977
--
residue.string: GTGCAGGGGC
switch fluorescence ratio: 1.04

====

Tested on: ATP;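 further: ATP exposure 15 min at 22 °C before imaging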
Test: switch fluorescence ratio, 500 uM ATP over buffer (Cy3 cluster intensity, sum of 5 cycles each) (fold (ratio)); higher = stronger signal-on switching upon ATP binding; sequences stand for … in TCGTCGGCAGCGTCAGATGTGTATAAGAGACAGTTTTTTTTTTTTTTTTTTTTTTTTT…TC
Conditions: aptamer strand: ATP DNA aptamer (quencher-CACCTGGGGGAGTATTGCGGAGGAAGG + anchor), 100 nM annealed; ATP concentration: 500 uM

residue.string: AATGATCGAC
switch fluorescence ratio: 0.975

residue.string: TTACGGTATG
switch fluorescence ratio: 1.09

residue.string: GGCGATTGGG
switch fluorescence ratio: 0.99

residue.string: TAAAAAATAG
switch fluorescence ratio: 1.04

residue.string: GGTTTAGGGG
switch fluorescence ratio: 0.985

residue.string: AGAGCTATAA
switch fluorescence ratio: 1.25

residue.string: TGTGAGTGTG
switch fluorescence ratio: 0.983

residue.string: CCAGGGCGAA
switch fluorescence ratio: 1.06

residue.string: GTAAAGAAAA
switch fluorescence ratio: 1.05

residue.string: ACTGGGCATG
switch fluorescence ratio: 1.01

residue.string: GCGTTAGCTT
switch fluorescence ratio: 0.982

residue.string: AAAAAATTCG
switch fluorescence ratio: 1.03

residue.string: TAAGCTGGGG
switch fluorescence ratio: 0.986

residue.string: GGTAATATTT
switch fluorescence ratio: 0.998

residue.string: GTAGGAGGAG
switch fluorescence ratio: 0.991

residue.string: GAAATGAGAT
switch fluorescence ratio: 0.975

residue.string: ACCTTTTCTT
switch fluorescence ratio: 1

residue.string: ATAAGCGTGG
switch fluorescence ratio: 0.995

residue.string: CACCTGTCCG
switch fluorescence ratio: 1.06

residue.string: TAATTAGGAA
switch fluorescence ratio: 1.02

residue.string: AGGGTGTTAT
switch fluorescence ratio: 0.993

residue.string: CGAGTCAGA
switch fluorescence ratio: 1.07

residue.string: AGGGGGGGAG
switch fluorescence ratio: 1.01

residue.string: GTTGGGTATC
switch fluorescence ratio: 0.998

residue.string: GCATTTTGAA
switch fluorescence ratio: 1.02

residue.string: CCGCTGGTGT
switch fluorescence ratio: 3.59

residue.string: TTTAAGGCCT
switch fluorescence ratio: 1

residue.string: ATGGTTTAGG
switch fluorescence ratio: 0.988

residue.string: TGTTTACTTT
switch fluorescence ratio: 0.98

residue.string: GATACTGTGA
switch fluorescence ratio: 0.995

residue.string: TCTGTATTTG
switch fluorescence ratio: 0.981

residue.string: TCGCTTTTGG
switch fluorescence ratio: 1.02

residue.string: TTCCGGGCTT
switch fluorescence ratio: 1.41

residue.string: CCTCAGCGGA
switch fluorescence ratio: 3.35

residue.string: AGTTTTAACG
switch fluorescence ratio: 0.974

residue.string: CAGCCAAAT
switch fluorescence ratio: 1.04

residue.string: AGAGGTAAT
switch fluorescence ratio: 1.09

residue.string: TAGCGAGTAT
switch fluorescence ratio: 1

residue.string: TTCCAAATTG
switch fluorescence ratio: 0.993

residue.string: GTGGGGAAAG
switch fluorescence ratio: 0.99

residue.string: CGTTCACCGG
switch fluorescence ratio: 0.959

residue.string: CATGTTCTTT
switch fluorescence ratio: 0.999

residue.string: CGCAGTTTTA
switch fluorescence ratio: 1.05

residue.string: GGGGGGTATC
switch fluorescence ratio: 1.01

residue.string: TTTGTATAGG
switch fluorescence ratio: 0.98

residue.string: CGGGCCACGC
switch fluorescence ratio: 1.04

residue.string: CACTGGCGAT
switch fluorescence ratio: 1.06

residue.string: AGGATTTGAG
switch fluorescence ratio: 1

residue.string: TGCAGGGAGG
switch fluorescence ratio: 1.02

residue.string: CCATATCCAA
switch fluorescence ratio: 1.06

residue.string: TTGGGCGGGT
switch fluorescence ratio: 0.994

residue.string: AGTTCGGGCA
switch fluorescence ratio: 0.998

residue.string: GGAGGGGTGC
switch fluorescence ratio: 1.04

residue.string: AAAAAGTTAG
switch fluorescence ratio: 0.998

residue.string: TTTGGGGAGA
switch fluorescence ratio: 1

residue.string: TCTGCCATTT
switch fluorescence ratio: 1.44

residue.string: TAGGGGATCA
switch fluorescence ratio: 0.984

residue.string: TCCAAGGGTG
switch fluorescence ratio: 1.46

residue.string: AATTCGTTGG
switch fluorescence ratio: 0.993

residue.string: AACGGATCGG
switch fluorescence ratio: 0.998

residue.string: ATATTTGGCC
switch fluorescence ratio: 0.974

residue.string: TGAAAGTGCT
switch fluorescence ratio: 0.973

residue.string: AGTGAATGGA
switch fluorescence ratio: 0.991

residue.string: AGTAGTGTTG
switch fluorescence ratio: 1.01

residue.string: TTATATTTGT
switch fluorescence ratio: 0.98

residue.string: TTTTTAGAAA
switch fluorescence ratio: 0.971

residue.string: ATCAGGGACA
switch fluorescence ratio: 1.18

residue.string: AAAAATTTGT
switch fluorescence ratio: 0.993

residue.string: TTCTCGTTGG
switch fluorescence ratio: 1.02

residue.string: ATGTTGTTAC
switch fluorescence ratio: 1.01

residue.string: GAGAATGGGT
switch fluorescence ratio: 0.981

residue.string: GATAGACTCT
switch fluorescence ratio: 0.975

residue.string: AATTAAAAAG
switch fluorescence ratio: 0.975

residue.string: AATTGATTGG
switch fluorescence ratio: 0.983

residue.string: GTTATTGCGT
switch fluorescence ratio: 0.982

residue.string: TGTTGTGCAC
switch fluorescence ratio: 1.02

residue.string: GGTTAGGATG
switch fluorescence ratio: 0.97

residue.string: ATGGGCACGG
switch fluorescence ratio: 0.99

residue.string: ATGTTGTTGA
switch fluorescence ratio: 0.998

residue.string: GGGAAAGGAT
switch fluorescence ratio: 1.02
